system: PC-3; experiment: NCI tumour cell line growth inhibition, 48 h
Active and inactive are the calls of the source. Cut-off read from the data, not from the text of the source: active = GI50 up to about 1.1 µM and inactive = higher.
Possible outcomes: active, inactive

molecule	cat
Cn1c(=O)c2nc(/N=N/Nc3nncs3)[nH]c2n(C)c1=O	inactive
COc1ccc(OC)c(CC2CCc3nc(N)nc(N)c3C2)c1 (centres undefined)	active
Cc1nn(C(=O)c2ccncc2)c2c1C(c1ccc(Cl)cc1)SC(=N)N2 (centres undefined)	inactive
O=C1CCCC1C(=O)Nc1ccc2ccccc2c1 (centres undefined)	inactive
COC1CC(OC2C(C)OC(OC3C(C)OC(OC4C(C)OC(O[C@H]5CC[C@@]6(C)C(=CC[C@]7(O)[C@@H]6C[C@@H](OC(C)=O)[C@@]6(C)[C@]7(O)CC[C@@]6(O)C(C)=O)C5)CC4OC)CC3OC)CC2OC)OC(C)C1O (some centres undefined)	inactive
COc1ccc2[nH]c3nnc(N)c-3nc2c1	inactive
COC(=O)/C=C(\C)CC/C=C(\C)CCC(O)C(C)(C)O (centres undefined)	inactive
O=[N+]([O-])C(C(Cl)=C(Cl)Cl)=C(N1CCOCC1)N1CCOCC1	inactive
Cc1c(NC(=O)CSC(=S)N2CCN(Cc3ccccc3)CC2)c(=O)n(-c2ccccc2)n1C	inactive

* * *

tested on: OVCAR-3; experiment: NCI tumour cell line growth inhibition, 48 h
Activity calls are given as the source filed them. Cut-off read from the data, not from the text of the source: active = GI50 up to about 1.1 µM and inactive = higher.
Possible outcomes: active, inactive

compound	test_system	cat
O=S1(=O)C(c2ccccc2)C(N2CCCCC2)C1C1CC2c3ccccc3C1c1ccccc12 (stereo unspecified)	OVCAR-3	inactive
O=[N+]([O-])c1cc(Cl)ccc1Sc1ccccc1	OVCAR-3	inactive
O=C(O)C(C(C(=O)O)P(=O)(O)O)P(=O)(O)O (stereo unspecified)	OVCAR-3	inactive
CN(C)c1ccc(/C=C2\N=C(NNc3ccccc3)NC2=O)cc1	OVCAR-3	inactive
CC(=O)C1=C(C)N(c2ccc(C)cc2)C2(O)C=CC(O)=C3C(=O)c4ccccc4C(=O)C312 (stereo unspecified)	OVCAR-3	inactive
COc1cccc(-c2cc(O)c3cc(N4CCOCC4)ccc3n2)c1	OVCAR-3	active
S=P(N1CC1)(N1CC1)N1CC1	OVCAR-3	inactive
O=C1NC2C(=O)N(Cc3ccccc3)C(=O)C2N1 (stereo unspecified)	OVCAR-3	inactive
CC(=O)Oc1ccc(C2SCc3nc4ccccc4n32)cc1 (stereo unspecified)	OVCAR-3	inactive
CCN(CC)CCNc1ccc([N+](=O)[O-])c2nc3ccc(OC)cc3c(N)c12	OVCAR-3	inactive
Cc1nc(C(N)=O)c(N)n1CCN1CCN(C(=O)CCCCCCCCCCNC2NC=Nc3[nH]cnc32)CC1 (stereo unspecified)	OVCAR-3	inactive
Cc1cc(S(=O)(=O)Nc2nc(N)n(C)n2)c(S)cc1Cl	OVCAR-3	inactive
COc1ccc(-c2c3c(n(C4OC(COC(C)=O)C(OC(C)=O)C(OC(C)=O)C4OC(C)=O)c(=S)c2C#N)CCC3)cc1 (stereo unspecified)	OVCAR-3	inactive
N[C@H](C(=O)O)[C@@H]1CC(Br)=NO1	OVCAR-3	inactive
CN(C)c1cccc2c(S(=O)(=O)NCCCNCCN)cccc12	OVCAR-3	inactive
COc1cc(Cn2c3c(c4c(C(=O)NCCN(C)C)c(O)ccc42)C(=O)c2ccccc2C3=O)cc(OC)c1	OVCAR-3	inactive

* * *

system: SF-295; assay: NCI tumour cell line growth inhibition, 48 h
Counter-ions that a name gives are not always drawn. The source made the active and inactive calls. No stated cut-off is given here; in the data, active = GI50 up to about 1.1 µM and inactive = higher.

compound	test_system	GI50
Cc1ccc(NC(=O)CC(=O)n2nc(-c3ccccc3)c(/N=N\c3ccccc3[N+](=O)[O-])c2-c2ccccc2)cc1	SF-295	29 µM (inactive)
O=C1Nc2ccccc2/C1=N/NC(=S)Nc1ccccc1Cl	SF-295	1.29 µM (inactive)
O=C(O)C1C2C=CC(O2)C1C(=O)Nc1ccccc1 (stereo not drawn)	SF-295	> 100 µM (inactive)
O=[N+]([O-])c1ccc2c(c1)C(N1CCN(CCO)CC1)Cc1ccc(F)cc1S2 (stereo not drawn)	SF-295	4.14 µM (inactive)
CC[C@@H]1/C=C/C=C/C[C@H](C)[C@@H](O)[C@@H](C)C(=O)[C@H](C)[C@@H](O)[C@H](C)C(=O)[C@H](C)[C@@H](O)[C@H](C)/C=C/C(=O)O[C@H]2[C@@H](C)[C@@H](CC1)O[C@@]1(CC[C@@H](C)[C@@H](CC(C)O)O1)[C@@H]2C (stereo partly drawn)	SF-295	< 0.0025 µM (active)
CCOC(=O)C(C(=O)OCC)=C1NC2(c3ccccc3Nc3ccc(C)cc32)C(C#N)S1 (stereo not drawn)	SF-295	9.59 µM (inactive)
O=C1CCCC2(c3ccccc3)Nc3ccccc3N12 (stereo not drawn)	SF-295	97.1 µM (inactive)
CSc1nnc(SCc2nn3c(=O)cc(C)nc3s2)s1	SF-295	> 100 µM (inactive)
CC(C)CCCC(C)[C@H]1CC[C@H]2n3c(nnc3-c3ccccc3)CCC[C@]12C (stereo partly drawn)	SF-295	9.08 µM (inactive)
Cn1cnc(S[C@H]2[C@H]3C(=O)C=C4S[C@H]5C[C@]42C2=C(N5)C(=O)c4[nH]cc5c4C2=[N+]3CC5)c1C[C@H](N)C(=O)O	SF-295	15.8 µM (inactive)
O=C(N/N=C/c1ccccc1O)c1cccc([N+](=O)[O-])c1	SF-295	19.7 µM (inactive)
N[C@H](C(=O)O)[C@@H]1CC(Br)=NO1	SF-295	73.6 µM (inactive)
CC1OC(NCCNCCNC2OC(C)C(O)C(O)C2O)C(O)C(O)C1O (stereo not drawn)	SF-295	> 100 µM (inactive)
C=CCOC1(CC=C)C(=O)OC2C(O)COC21O (stereo not drawn)	SF-295	> 100 µM (inactive)
CC1(C)OCC(C(O)C2OC(C)(C)OC2C=O)O1 (stereo not drawn)	SF-295	> 100 µM (inactive)
Fc1ccc2c3c([nH]c2c1)CCN(Cc1ccccc1)C3	SF-295	14.7 µM (inactive)
COc1cccc([C@@]2(O)c3c(ccc(O)c3OC)[C@H]2OC)c1OC	SF-295	57.8 µM (inactive)
O=C(Nc1ccc(Nc2ccc3c(c2)C(=O)c2ccccc2C3=O)c2c1C(=O)c1ccccc1C2=O)c1ccccc1	SF-295	31.4 µM (inactive)
Cc1c2ccccc2c(/C=N/NC(=O)CSCC(=O)N/N=C/c2c3ccccc3c(C)c3ccccc23)c2ccccc12	SF-295	16 µM (inactive)
O=c1[nH]c2cc3[nH]c4ncccc4c(=O)c3cc2[nH]1	SF-295	> 10 µM (inactive)
COC1=CC2C(c3cc4ccccc4n3S(=O)(=O)c3ccccc3)CC1CN2C(=O)OCc1ccccc1 (stereo not drawn)	SF-295	25 µM (inactive)
COc1ccc(C2N3CCCCC3[C@@H]3c4[nH]c5ccccc5c4CCN23)c(OC)c1 (stereo partly drawn)	SF-295	42.3 µM (inactive)
O=C(Nc1nc2ccc([N+](=O)[O-])cc2[n+]([O-])n1)C(F)(F)F	SF-295	27.9 µM (inactive)
CC(=O)NC(CCCNC(=O)OCc1ccccc1)C(=O)O (stereo not drawn)	SF-295	> 100 µM (inactive)
Cc1ccc2c(c1)C(C(=O)N[C@@H]1C(=O)N3[C@@H]1SC(C)(C)[C@@H]3C(=O)O)OCCC2 (stereo partly drawn)	SF-295	> 100 µM (inactive)
Cn1c(=O)c2ccccc2[n+]2c(-c3cccc([N+](=O)[O-])c3)csc12	SF-295	44.8 µM (inactive)
C#Cc1cccc(Nc2ncnc3cc(OCCOC)c(OCCOC)cc23)c1 [ERLOTINIB HYDROCHLORIDE]	SF-295	16.2 µM (inactive)
CC(=O)/C=C\C1CC2C=CC1C2 (stereo not drawn)	SF-295	31 µM (inactive)
CNS(=O)(=O)NNS(=O)(=O)c1ccc2ccccc2c1	SF-295	> 100 µM (inactive)
Oc1cc(O)c2c(c1)O[C@H](c1cc(O)c(O)c(O)c1)[C@@H](O)C2 [GALLOCATECHIN]	SF-295	24.4 µM (inactive)
CCc1cc2c(Nc3ccccc3)c3c(nc2s1)CCCC3	SF-295	28.8 µM (inactive)
O=C1Nc2ccccc2/C1=C/c1ccccc1	SF-295	17.5 µM (inactive)
O=C1C(Cl)=C(Nc2ccc(OC(F)(F)F)cc2)C(=O)c2c(O)ccc(O)c21	SF-295	1.93 µM (inactive)
CCCCCC/C=C\CCCCCCCCCc1cccc(O)c1C(=O)O [GINKGOLIC ACID 17:1]	SF-295	59.3 µM (inactive)
CCOC(=O)c1c(NC(=O)c2cccs2)sc2c1CCC2	SF-295	> 100 µM (inactive)
COc1cc2c3c(c1Oc1nnnn1-c1ccccc1)-c1c(ccc4c1OCO4)C[C@H]3N(C)CC2	SF-295	32.2 µM (inactive)
COc1cccc(-c2cc(=O)c3cc(C)c(C)c(C(=O)O)c3o2)c1	SF-295	> 100 µM (inactive)
COc1cc([C@H]2Oc3c(OC)cc(CCCO)cc3[C@@H]2CO)ccc1O [DIHYDRODEHYDRODICONIFERY ALCOHOL]	SF-295	> 100 µM (inactive)

Reference for the values: ChEMBL document CHEMBL1201862
